# system.name: Rac GTPase-activating protein 1 (Homo sapiens)
# assay.details: blockers of MgcRacGAP-driven Rac1 GTP hydrolysis – biochemical, ADP Hunter fluorescence, primary and confirmatory, confirmation (AID 624330);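 further: fluorescence reports GDP produced by GAP-driven GTP hydrolysis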
# condition.label: MgcRacGAP-stimulated Rac1 GTP hydrolysis, at 30 µM, hits give high values, GST-tagged Rac1 F28L mutant substrate
Among all 340,000 compounds or so, about 2,100 (0.62%) were called active. Only a sample is shown. Measured potencies and affinities stand elsewhere.
Quick rule: inhibition of at least 5% means Criterion met, below that means Criterion not met.

[in] Exam item: decide whether the reported inhibition for CCCc1cc(=O)[nH]c(SCC(=O)N2CCCCCC2)n1 is at least 5%.
[out] Criterion not met

[in] Exam item: decide whether the reported inhibition for C#CCOCCOCCOCCNc1nc(N2CCN(C(=O)C([C@@H](C)O)n3cc([C@@H](N)CCCCN)nn3)CC2)nc(N2CCN(C(=O)C([C@@H](C)O)n3cc([C@@H](N)CCCCN)nn3)CC2)n1 (stereo partly drawn) is at least 5%.
[out] Criterion met

====

# system.name: Rac GTPase-activating protein 1 (Homo sapiens)
# assay.details: blockers of MgcRacGAP-driven Rac1 GTP hydrolysis – biochemical, ADP Hunter fluorescence, primary and confirmatory, confirmation (AID 624330);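 further: fluorescence reports GDP produced by GAP-driven GTP hydrolysis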
# condition.label: MgcRacGAP-stimulated Rac1 GTP hydrolysis, at 30 µM, hits give high values, GST-tagged Rac1 F28L mutant substrate
Among all 340,000 compounds or so, about 2,100 (0.62%) were called active. Not all results are given here. Potency and affinity values are given separately.
Overview of recorded inhibition for various compounds
The reply should be a number in %, with the unit left off.

Please review the entries below; each comes with its answer.
compound | inhibition / %
COc1ccc(-c2c(-c3ccc(O)cc3O)n[nH]c2C(F)(F)F)cc1 | 9.47
CCN1C(=O)CC(N2CCN(c3cccc(OC)c3)CC2)C1=O (stereo unspecified) | 7.87

[in] Fill blank: measured inhibition of the compound CN1CCN(CC(=O)Nc2ccccc2Oc2ccccc2)CC1 is ____.
[out] 4.33

[in] Fill blank: measured inhibition of the compound COc1ccc(-c2cc3cc(OC)c(OC)cc3c(C)n2)cc1 is ____.
[out] 6.65

[in] Fill blank: measured inhibition of the compound COc1ccc(-c2cc(-c3ccc(OC)c(OC)c3)n[nH]2)c(O)c1 is ____.
[out] 8.89

[in] Fill blank: measured inhibition of the compound C=C1CCN([C@@H](CC(C)C)C(=O)NCc2ccc(OC)cc2)S(=O)(=O)c2ccccc21 is ____.
[out] 13.2

[in] Fill blank: measured inhibition of the compound CC(=O)c1ccc(S(=O)(=O)NCCC(=O)OC(C)C(=O)Nc2ccc(F)cc2)cc1 (stereo unspecified) is ____.
[out] 5.33

[in] Fill blank: measured inhibition of the compound CCC1(C)CC(CCN(Cc2ccco2)C(C)=O)(c2ccccc2)CCO1 (stereo unspecified) is ____.
[out] 6.02

[in] Fill blank: measured inhibition of the compound O=C(Cc1ccccc1)N/N=C/c1cc(Br)cs1 is ____.
[out] 10.7

[in] Fill blank: measured inhibition of the compound COc1ccccc1-c1c(-c2ccc(O)cc2O)n[nH]c1C(F)(F)F is ____.
[out] 13.8

[in] Fill blank: measured inhibition of the compound COc1ccc(-c2cc(-c3ccccc3O)[nH]n2)cc1OC is ____.
[out] 13.3
